METHOD_SUMMARY: Pharmacokinetics in plasma and eye tissues of male SD rats after single administration of eye drop
Assay type: in vivo
ASSAY_CONTEXT: SD (Sprague-Dawley), rat, topical or ocular; male SD rats, single eye drop 5 mg/mL, 30 μL/eye, both eyes; Aqueous humor of anterior chamber
ENDPOINT: Cmax (nM)
Answer in nM, number only, no unit symbol.

compound c1cn2c(n1)c(Nc1ccc(N3CCOCC3)cc1)nc1ccc(-c3cn[nH]c3)cc12 , Cmax observed: 560

----------
METHOD_SUMMARY: Pharmacokinetics in plasma and eye tissues of male SD rats after single administration of eye drop
Type: in vivo
ASSAY_CONTEXT: SD (Sprague-Dawley), rat, topical or ocular; male SD rats, single eye drop 5 mg/mL, 30 μL/eye, both eyes; Bulbar conjunctiva
ENDPOINT: Tmax (min)
Write it as a number; the unit min goes unstated.

Entry c1cn2c(n1)c(Nc1ccc(N3CCOCC3)cc1)nc1ccc(-c3cn[nH]c3)cc12 — recorded Tmax = 30

Where do the numbers come from? From patent US20240132503A1.
